Settings: 298.15 K; 101.33 kPa; Liquid; Pycnometric method
Measure Name: mass density (kg/m3)

| Molecule | Reading Unit | mass density |
| --- | --- | --- |
| CCCO [propan-1-ol] | kg/m3 | 799.65 |
| CCCCCCO [hexan-1-ol] | kg/m3 | 815.4 |
| CCCCCCCCO [octan-1-ol] | kg/m3 | 822.47 |
| CCCCCCCCCCO [decan-1-ol] | kg/m3 | 826.31 |
| C=CCCCCCC [oct-1-ene] | kg/m3 | 710.88 |
| CCCCO [butan-1-ol] | kg/m3 | 805.71 |
